tested target: Angiotensin II receptor (AT-1) type-1 (Rattus norvegicus, UniProt P29089+P25095)
test protocol: Concentration required to 50% inhibition in specific binding of [125- I]A-II to Angiotensin II receptor in rat uterine membrane
Assay type: cell membranes
Positions of bridges follow the written chain, without caps; N, C: chain ends. Non-standard residues stand in square brackets, D forms with d. Residues, ends and D or L forms follow the SMILES beside them. Pen = CC(C)(S)[C@H](N)C(=O)O; hCys = N[C@@H](CCS)C(=O)O; Sar = CNCC(=O)O
observed property: log10(IC50) (log10 of the value in nM)

NC(N)=NCCC[C@H](NC(=O)[C@@H](N)CC(=O)O)C(=O)N[C@H]1CSSC[C@@H](C(=O)N[C@@H](Cc2c[nH]cn2)C(=O)N2CCC[C@H]2C(=O)N[C@@H](Cc2ccccc2)C(=O)O)NC(=O)[C@H](Cc2ccc(O)cc2)NC1=O	1.63
NC(N)=NCCC[C@H](NC(=O)[C@@H](N)CC(=O)O)C(=O)N[C@H]1CSSCC[C@@H](C(=O)N[C@@H](Cc2c[nH]cn2)C(=O)N2CCC[C@H]2C(=O)N[C@@H](Cc2ccccc2)C(=O)O)NC(=O)[C@H](Cc2ccc(O)cc2)NC1=O (H-DRCY[hCys]HPF-OH; disulfide 3-5)	1.11
CC(=O)NCSC[C@H](NC(=O)[C@H](CCCN=C(N)N)NC(=O)[C@@H](N)CC(=O)O)C(=O)N[C@@H](Cc1ccc(O)cc1)C(=O)N[C@H](CSCNC(C)=O)C(=O)N[C@@H](Cc1c[nH]cn1)C(=O)N1CCC[C@H]1C(=O)N[C@@H](Cc1ccccc1)C(=O)O	4.00
NC(N)=NCCC[C@H](NC(=O)[C@@H](N)CC(=O)O)C(=O)N[C@H]1CSSC[C@H](C(=O)N[C@@H](Cc2c[nH]cn2)C(=O)N2CCC[C@H]2C(=O)N[C@@H](Cc2ccccc2)C(=O)O)NC(=O)[C@H](Cc2ccc(O)cc2)NC1=O	4.00
NC(N)=NCCC[C@H](NC(=O)[C@@H](N)CC(=O)O)C(=O)N[C@H]1CCSSCC[C@@H](C(=O)N[C@@H](Cc2c[nH]cn2)C(=O)N2CCC[C@H]2C(=O)N[C@@H](Cc2ccccc2)C(=O)O)NC(=O)[C@H](Cc2ccc(O)cc2)NC1=O (H-DR[hCys]Y[hCys]HPF-OH; disulfide 3-5)	0.32
CC1(C)SSC[C@H](NC(=O)[C@H](CCCN=C(N)N)NC(=O)[C@@H](N)CC(=O)O)C(=O)N[C@@H](Cc2ccc(O)cc2)C(=O)N[C@@H]1C(=O)N[C@@H](Cc1c[nH]cn1)C(=O)N1CCC[C@H]1C(=O)N[C@@H](Cc1ccccc1)C(=O)O (H-DRCY[Pen]HPF-OH; disulfide 3-5)	0.11
CC[C@H](C)[C@H](NC(=O)[C@@H]1CCCN1C(=O)[C@H](Cc1c[nH]cn1)NC(=O)[C@@H]1CCSSCC[C@H](NC(=O)[C@H](CCCN=C(N)N)NC(=O)CNC)C(=O)N[C@@H](Cc2ccc(O)cc2)C(=O)N1)C(=O)O (H-[Sar]R[hCys]Y[hCys]HPI-OH; disulfide 3-5)	-0.05
NC(N)=NCCC[C@H](NC(=O)[C@@H](N)CC(=O)O)C(=O)N[C@H]1CCSSC[C@@H](C(=O)N[C@@H](Cc2c[nH]cn2)C(=O)N2CCC[C@H]2C(=O)N[C@@H](Cc2ccccc2)C(=O)O)NC(=O)[C@H](Cc2ccc(O)cc2)NC1=O (H-DR[hCys]YCHPF-OH; disulfide 3-5)	1.00

Data origin, for the record: ChEMBL document CHEMBL1124840
